# testedOn: human Claudin 18.2 (CLDN18.2) (human, UniProt P56856-2 1-261)
# assayNotes: cell-based or functional assay
measure: % ADCC @ 6.67 nM, NCI-N87-CLDN18.2, FcR-TANK (%)
One number for each entry, in %.

[[record]]
binder = "413H9F8-H1L3 (antibody, V domains shown, humanized IgG; constant regions not specified) VH: EVQLVESGGGLVQPGGSLRLSCAASGFTFSSFGMHWVRQAPGKGLEWVSYISSGSSPIYYVDKLKGRFTISRDNAKNSLYLQMNSLRAEDTAVYYCARAGYAVRNALDYWGQGTLVTVSS VL: DIVMTQSPDSLAVSLGERATINCKSSQSLLNVGNQKNYLAWYQQKPGQPPKLLIYGASTRESGVPDRFIGSGSGTDFTLTISSLQAEDVAVYFCQNDLFYPLTFGGGTKVEIK"
measvalue = 16.3


Take each entry in turn and give its % ADCC @ 6.67 nM, NCI-N87-CLDN18.2, FcR-TANK.
1. 413H9F8-H1L1 (antibody, V domains shown, humanized IgG; constant regions not specified) VH: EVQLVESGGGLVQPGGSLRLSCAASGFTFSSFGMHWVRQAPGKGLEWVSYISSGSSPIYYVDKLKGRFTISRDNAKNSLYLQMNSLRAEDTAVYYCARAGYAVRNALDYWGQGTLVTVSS VL: DIVMTQSPDSLAVSLGERATINCKSSQSLLNVGNQKNYLAWYQQKPGQPPKLLIYGASTRESGVPDRFSGSGSGTDFTLTISSLQAEDVAVYYCQNDLFYPLTFGGGTKVEIK
2. 413H9F8-cp3 (antibody, V domains shown, humanized IgG; constant regions not specified) VH: DVQLVESGGGLVQPGGSLRLSCAASGFTFSSFGMHWVRQAPGKGLEWVAYISSGSSPIYYVDKLKGRFTVSRDNAKNSLYLQMNSLRAEDTAVYYCARAGYAVRNALDYWGQGTLVTVSS VL: EIVMTQSPPTLSLSPGERVTLSCKSSQSLLNVGNQKNYLAWYQQKPGQAPRLLIYGASTRESGIPARFSGSGSGTDFTLTISSLQPEDFAVYYCQNDLFYPLTFGGGTKVEIK

Solution:
[15.1, 11.1]

Reference source: patent US20210380680A1
